Test system: Sprague-Dawley (SD) rats
assay_details: Urinary glucose excretion test in rats
Assay type: in vivo, rat
experimental_setup: male SD rats; 30 mg/kg by oral gavage; urine collected for 24 hours; daily amount of glucose excreted in urine per individual
measure: Urinary glucose

• OC[C@H]1O[C@@H](n2cc(Cc3ccc4occc4c3)c3c(Br)cccc32)[C@H](O)[C@@H](O)[C@@H]1O [Example 43] = A (A≧2400 mg)
• Cc1cccc2c1c(Cc1ccc3occc3c1)cn2[C@@H]1O[C@H](CO)[C@@H](O)[C@H](O)[C@H]1O [Example 40] = B (2400 mg>B≧2000 mg)
• OC[C@H]1O[C@@H](n2cc(Cc3ccc(C(F)F)cc3)c3c(Cl)cccc32)[C@H](O)[C@@H](O)[C@@H]1O [Example 30] = A (A≧2400 mg)
• CCc1ccc(Cc2cn([C@@H]3O[C@H](CO)[C@@H](O)[C@H](O)[C@H]3O)c3cccc(F)c23)s1 [Example 18] = B (2400 mg>B≧2000 mg)
• OC[C@H]1O[C@@H](n2cc(Cc3ccc(OCCCl)cc3)c3c(Cl)cccc32)[C@H](O)[C@@H](O)[C@@H]1O [Example 19] = A (A≧2400 mg)
• OC[C@H]1O[C@@H](n2cc(Cc3ccc(F)cc3)c3c(Cl)cccc32)[C@H](O)[C@@H](O)[C@@H]1O [Example 27] = B (2400 mg>B≧2000 mg)
• OC[C@H]1O[C@@H](n2cc(Cc3ccc(OC(F)(F)F)cc3)c3c(Cl)cccc32)[C@H](O)[C@@H](O)[C@@H]1O [Example 29] = B (2400 mg>B≧2000 mg)
• OC[C@H]1O[C@@H](n2cc(Cc3ccc4occc4c3)c3c(Cl)cccc32)[C@H](O)[C@@H](O)[C@@H]1O [Example 15] = A (A≧2400 mg)
• CCOc1ccc(Cc2cn([C@@H]3O[C@H](CO)[C@@H](O)[C@H](O)[C@H]3O)c3cc(Cl)cc(Cl)c23)cc1 [Example 28] = B (2400 mg>B≧2000 mg)
• OC[C@H]1O[C@@H](n2cc(Cc3ccc(Br)s3)c3c(Cl)cccc32)[C@H](O)[C@@H](O)[C@@H]1O [Example 7] = B (2400 mg>B≧2000 mg)
• OC[C@H]1O[C@@H](n2cc(Cc3ccc(I)cc3)c3c(Cl)c(F)ccc32)[C@H](O)[C@@H](O)[C@@H]1O [Example 37] = B (2400 mg>B≧2000 mg)
• OC[C@H]1O[C@@H](n2cc(Cc3ccc(Br)cc3)c3c(Cl)cccc32)[C@H](O)[C@@H](O)[C@@H]1O [Example 14] = A (A≧2400 mg)
• OC[C@H]1O[C@@H](n2cc(Cc3ccc(OC(F)F)cc3)c3c(F)cccc32)[C@H](O)[C@@H](O)[C@@H]1O [Example 26] = A (A≧2400 mg)
• OC[C@H]1O[C@@H](n2cc(Cc3ccc(I)cc3)c3c(Br)cccc32)[C@H](O)[C@@H](O)[C@@H]1O [Example 42] = A (A≧2400 mg)
• Cc1cccc2c1c(Cc1ccc(I)cc1)cn2[C@@H]1O[C@H](CO)[C@@H](O)[C@H](O)[C@H]1O [Example 39] = B (2400 mg>B≧2000 mg)
• OC[C@H]1O[C@@H](n2cc(Cc3ccc(C(F)F)cc3)c3c(F)cccc32)[C@H](O)[C@@H](O)[C@@H]1O [Example 25] = B (2400 mg>B≧2000 mg)
• Cc1cccc2c1c(Cc1ccc(C3CC3)cc1)cn2[C@@H]1O[C@H](CO)[C@@H](O)[C@H](O)[C@H]1O [Example 47] = A (A≧2400 mg)
• OC[C@H]1O[C@@H](n2cc(Cc3ccc(Br)cc3)c3c(Br)cccc32)[C@H](O)[C@@H](O)[C@@H]1O [Example 41] = B (2400 mg>B≧2000 mg)
• OC[C@H]1O[C@@H](n2cc(Cc3ccc(I)cc3)c3c(Cl)cccc32)[C@H](O)[C@@H](O)[C@@H]1O [Example 33] = A (A≧2400 mg)
• OC[C@H]1O[C@@H](n2cc(Cc3ccc(O)cc3)c3c(Cl)cccc32)[C@H](O)[C@@H](O)[C@@H]1O [Example 46] = A (A≧2400 mg)
• OC[C@H]1O[C@@H](n2cc(Cc3ccc(OCCCl)cc3)c3c(F)cccc32)[C@H](O)[C@@H](O)[C@@H]1O [Example 13] = B (2400 mg>B≧2000 mg)
• OC[C@H]1O[C@@H](n2cc(Cc3ccc(Cl)cc3)c3c(Br)cccc32)[C@H](O)[C@@H](O)[C@@H]1O [Example 44] = B (2400 mg>B≧2000 mg)
• CCOc1ccc(Cc2cn([C@@H]3O[C@H](CO)[C@@H](O)[C@H](O)[C@H]3O)c3ccc(F)c(Cl)c23)cc1 [Example 35] = A (A≧2400 mg)
• OC[C@H]1O[C@@H](n2cc(Cc3ccc4occc4c3)c3c(Cl)cc(Cl)cc32)[C@H](O)[C@@H](O)[C@@H]1O [Example 32] = B (2400 mg>B≧2000 mg)
• OC[C@H]1O[C@@H](n2cc(Cc3ccc4occc4c3)c3c(Cl)c(F)ccc32)[C@H](O)[C@@H](O)[C@@H]1O [Example 34] = B (2400 mg>B≧2000 mg)
• OC[C@H]1O[C@@H](n2cc(Cc3ccc4occc4c3)c3c(F)cccc32)[C@H](O)[C@@H](O)[C@@H]1O [Example 20] = A (A≧2400 mg)
• CCOc1ccc(Cc2cn([C@@H]3O[C@H](CO)[C@@H](O)[C@H](O)[C@H]3O)c3cccc(F)c23)cc1 [Example 8] = A (A≧2400 mg)
